# procedureDetails: chemical genetic growth profiling, strain panel (AID 1159580);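 further: tested at 20 µM; growth read once vehicle control cultures reached saturation at 30 °C; 1 = growth at the plate median or of vehicle wells; lower values mean less growth of the strain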
# experimentalSetup: S. cerevisiae deletion strains, growth OD, locus YBR009C, strain hhf1
Out of some 5,500 compounds screened, about 2,000 (36%) were called active. Inconclusive results (about 18%) are left out. No stated cut-off is given here; in the data, active means normalized growth mostly below about 0.91 (no sharp cut-off); inconclusive means no clear call, values can overlap the other calls; inactive means mostly above about 0.92. Some of the results follow.
// classify into 1 = active, -1 = inactive

Ask: Query: recorded result category for O=C(O)c1cccnc1 in this test
Reply: -1

Ask: Query: recorded result category for NC(=O)c1cccnc1 in this test
Reply: -1

Ask: Query: recorded result category for CCCc1cc(=O)[nH]c(=S)[nH]1 in this test
Reply: -1

Ask: Query: recorded result category for CC(C)=CCc1c2c(c3occ(-c4ccc(O)cc4)c(=O)c3c1O)C=CC(C)(C)O2 in this test
Reply: 1

Ask: Query: recorded result category for O=C(O)c1ccccc1 in this test
Reply: -1

Ask: Query: recorded result category for CN(C)[C@@H]1C(=O)C(C(=O)NCN2CCCC2)=C(O)[C@@]2(O)C(=O)C3=C(O)c4c(O)cccc4[C@@](C)(O)[C@H]3C[C@@H]12 in this test
Reply: -1

Ask: Query: recorded result category for CC(=O)N[C@@H](Cc1c[nH]c2ccccc12)C(N)=O in this test
Reply: -1

Ask: Query: recorded result category for N[C@@H](CCC(=O)N[C@@H](CS)C(=O)NCC(=O)O)C(=O)O in this test
Reply: -1

Ask: Query: recorded result category for CC(=O)O[C@@H]1C=C[C@@]2(C)C(C[C@@H](OC(C)=O)[C@@]3(C)C4=CC(=O)O[C@@H](c5ccoc5)[C@]4(C)CCC23)C1(C)C (stereo not given in full) in this test
Reply: -1

Ask: Query: recorded result category for CC(=O)O[C@H]1CCC2(C)C3=C(CCC2C1(C)C)[C@@]1(C)CC[C@@H](C(C)CCC=C(C)C)[C@]1(C)CC3 (stereo not given in full) in this test
Reply: -1

Ask: Query: recorded result category for CCCN(CCC)S(=O)(=O)c1ccc(C(=O)O)cc1 in this test
Reply: -1

Ask: Query: recorded result category for O=C(O)c1ccc(S(=O)(=O)N(Cl)Cl)cc1 in this test
Reply: -1

Ask: Query: recorded result category for Cc1scc2c1N(C(=O)CN1CCN(C)CC1)c1ccccc1NC2=O in this test
Reply: -1

Ask: Query: recorded result category for COC1CC2CCC(C)C(O)(O2)C(=O)C(=O)N2CCCCC2C(=O)OC(C(C)CC2CCC(O)C(OC)C2)CC(=O)C(C)/C=C(\C)C(O)C(OC)C(=O)C(C)CC(C)/C=C/C=C/C=C/1C (stereo not given) in this test
Reply: 1

Ask: Query: recorded result category for CC(=O)O[C@@H]1CC2C(C)(C)[C@H](O)C=C[C@]2(C)C2CC[C@]3(C)C(=CC(=O)O[C@H]3c3ccoc3)[C@@]21C (stereo not given in full) in this test
Reply: -1
